Source of measurements: PubChem BioAssay AID588358

Target: Desmoglein-3 (Homo sapiens)
Experiment: blockers of anti-DSG3 scFv binding – biochemical, bead-based, flow cytometry, scFv-GFP, primary screen (AID 588358);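 note: hits lower antibody fragment binding to DSG3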
Conditions: DSG3-coupled beads, at 10 µM, stronger effect = lower value
In all, about 310,000 compounds went through this assay and about 1,500 (0.48%) were called active. This is one part of a sample in which actives are shown more often than they occur.
Metric: binding (percent of control) (%)
Unit % implied. Number only.

Examples with answers:
Molecule: S=c1[nH]nc(-c2cc(-c3ccccc3)n[nH]2)n1/N=C/c1c2ccccc2cc2ccccc12
Metric: binding (percent of control)
Value observed: 82.6
//
Molecule: CCCCCC(=O)N1C[C@H](O)[C@@H](n2cc(COC(=O)c3ccccc3)nn2)C[C@@H]1c1ccc(C)cc1
Metric: binding (percent of control)
Value observed: 102
//
Molecule: C(=N\N1CCN(c2ccccn2)CC1)/C1=C(N2CCOCC2)C(=C/c2ccccc2)/CC1
Metric: binding (percent of control)
Value observed: 109
//
Molecule: Clc1cccc(N=C2NN=C(c3ccc4c(c3)OCCO4)CS2)c1
Metric: binding (percent of control)
Value observed: 97.3

Request: State, for Desmoglein-3 (Homo sapiens), measured binding (percent of control) of the molecule listed here: CC(C)C1CCN(C(=O)C2CCC(=O)N(C3CCCCCC3)C2)CC1 (centres undefined)
Result: 101

---

Target: Desmoglein-3 (Homo sapiens) (UniProt P32926)
Sequence (P32926 whole entry, looked up, the tested form may be a part): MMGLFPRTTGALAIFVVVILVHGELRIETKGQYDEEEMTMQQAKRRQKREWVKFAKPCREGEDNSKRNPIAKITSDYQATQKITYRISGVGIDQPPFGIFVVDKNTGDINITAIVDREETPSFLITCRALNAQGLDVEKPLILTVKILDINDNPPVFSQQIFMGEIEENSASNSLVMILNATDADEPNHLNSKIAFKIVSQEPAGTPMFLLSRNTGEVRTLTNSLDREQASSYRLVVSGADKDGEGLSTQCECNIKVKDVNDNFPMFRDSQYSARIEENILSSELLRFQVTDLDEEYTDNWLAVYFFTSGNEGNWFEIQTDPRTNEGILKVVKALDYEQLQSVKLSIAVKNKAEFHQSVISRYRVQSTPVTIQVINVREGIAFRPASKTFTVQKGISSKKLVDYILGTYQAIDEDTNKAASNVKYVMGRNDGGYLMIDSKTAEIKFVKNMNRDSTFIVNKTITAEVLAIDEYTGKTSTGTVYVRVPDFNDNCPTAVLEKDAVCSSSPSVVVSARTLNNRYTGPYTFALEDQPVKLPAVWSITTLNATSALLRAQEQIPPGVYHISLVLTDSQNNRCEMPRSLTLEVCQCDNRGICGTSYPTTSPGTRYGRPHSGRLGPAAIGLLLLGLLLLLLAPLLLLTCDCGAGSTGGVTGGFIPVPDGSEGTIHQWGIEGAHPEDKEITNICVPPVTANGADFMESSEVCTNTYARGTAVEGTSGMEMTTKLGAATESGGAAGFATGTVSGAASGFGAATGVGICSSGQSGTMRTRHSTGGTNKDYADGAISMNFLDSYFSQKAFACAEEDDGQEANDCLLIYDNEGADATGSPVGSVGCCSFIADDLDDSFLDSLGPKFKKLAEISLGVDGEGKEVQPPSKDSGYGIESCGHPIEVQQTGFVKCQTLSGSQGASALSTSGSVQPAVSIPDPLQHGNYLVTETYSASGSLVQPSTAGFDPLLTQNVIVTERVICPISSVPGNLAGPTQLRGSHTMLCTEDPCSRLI
Assay: blockers of anti-DSG3 scFv binding – biochemical, bead-based, flow cytometry, scFv-GFP, primary screen (AID 588358);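 note: hits lower antibody fragment binding to DSG3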
Details: DSG3-coupled beads, at 10 µM, stronger effect = lower value
The whole screen tested about 310,000 compounds, of which about 1,500 (0.48%) were called active. The sample as a whole holds a higher share of actives than the screen did.
Metric: binding (percent of control)

Examples with answers:
Molecule: Cc1ccccc1C#CC1=CC(=O)CC(C)(C)C1
binding (percent of control): 97.5% (inactive)
--
Molecule: COc1cccc(-c2nc(CS(=O)CC(=O)NCc3ccc(F)cc3)c(C)o2)c1 (stereo not given)
binding (percent of control): 93.3% (inactive)
--
Molecule: COC(=O)Cn1c(=NC(=O)CSCC(=O)Nc2cc(C)on2)sc2ccccc21
binding (percent of control): 82.3% (inactive)

Consider now this further molecule.
Request: State, for Desmoglein-3 (Homo sapiens) (UniProt P32926), measured binding (percent of control) of the molecule listed here: COc1ccc(NC(=O)CSc2nnnn2-c2cccc(OC)c2)cc1
Result: 92.2% (inactive)

---

Target: Desmoglein-3 (Homo sapiens) (UniProt P32926)
Experiment: blockers of anti-DSG3 scFv binding – biochemical, bead-based, flow cytometry, scFv-GFP, primary screen (AID 588358);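 note: hits lower antibody fragment binding to DSG3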
Conditions: DSG3-coupled beads, at 10 µM, stronger effect = lower value
Screen size: about 310,000 compounds; about 1,500 (0.48%) were called active. This is one part of a sample in which actives are shown more often than they occur.
// values below are reported binding (percent of control)
Unit % implied. Number only.

Compound: Cc1cccc(C(=O)NC2CCN(CC(=O)Nc3cccc(Cl)c3)CC2)c1
Experimental target: Desmoglein-3 (Homo sapiens) (UniProt P32926)
Result unit: %
Value observed: 92.9

Compound: CCc1c(N=O)c(-c2ccccc2)n(O)[n+]1[O-]
Experimental target: Desmoglein-3 (Homo sapiens) (UniProt P32926)
Result unit: %
Value observed: 95.9

Compound: Cc1ccc(C=O)c([B-](F)(F)F)c1
Experimental target: Desmoglein-3 (Homo sapiens) (UniProt P32926)
Result unit: %
Value observed: 103

Compound: O=C(NN=Cc1ccc([N+](=O)[O-])cc1)C1CC1
Experimental target: Desmoglein-3 (Homo sapiens) (UniProt P32926)
Result unit: %
Value observed: 122

Compound: CCOC(=O)C1CCN(C(=O)/C=C/c2cc(OC)c(OC)c(OC)c2)CC1
Experimental target: Desmoglein-3 (Homo sapiens) (UniProt P32926)
Result unit: %
Value observed: 101

Request: Consider the compound CN(CC(=O)Nc1ccc(N2CCOCC2)cc1)CC(=O)Nc1ccccc1[N+](=O)[O-] . State its measured binding (percent of control).
Result: 116

Request: Consider the compound O=C(Nc1cc(F)ccc1F)c1ccc2c(=O)n3c(nc2c1)CCC3 . State its measured binding (percent of control).
Result: 98.5

Request: Consider the compound CCCCOC(=O)NCN1C(=O)C2C3C=CC(C3)C2C1=O (stereo not drawn) . State its measured binding (percent of control).
Result: 110

Request: Consider the compound CC(=O)Nc1ccc(NC(=O)c2sc3nc4c(c(-c5ccc(C)cc5)c3c2N)CCC4)cc1 . State its measured binding (percent of control).
Result: 6.32

Request: Consider the compound COCCCN1C(=O)C(CC(=O)NCc2cccs2)CC(C(=O)N2CCOCC2)=C1C (stereo not drawn) . State its measured binding (percent of control).
Result: 99.9

---

Target: Desmoglein-3 (Homo sapiens) (UniProt P32926)
Assay: blockers of anti-DSG3 scFv binding – biochemical, bead-based, flow cytometry, scFv-GFP, primary screen (AID 588358);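 note: hits lower antibody fragment binding to DSG3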
Settings: DSG3-coupled beads, at 10 µM
Screen size: about 310,000 compounds; about 1,500 (0.48%) were called active.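 How the source made its calls: active means binding more than 3 SD below its plate's average and above zero; inconclusive means below that plate limit but binding exactly zero; inactive means the rest.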 For the sample, actives were picked, then their nearest neighbours and some compounds at random.
I would appreciate it if you answered using one of these outcomes: active, inactive

Request: Answer briefly: the call reported for Cc1cc(-c2ccc(S(=O)(=O)N3CCN(c4cccc(C(F)(F)F)c4)CC3)s2)on1 in this assay.
Result: inactive

Request: Answer briefly: the call reported for Cc1cc(-c2ccc(S(=O)(=O)N3CCc4ccccc4C3)s2)on1 in this assay.
Result: active

Request: Answer briefly: the call reported for C[C@H](O)[C@@H]1C(=O)N2CCc3c([nH]c4ccccc34)[C@@H]2C[C@@H]1N(C)C(=O)Nc1ccc(F)cc1 in this assay.
Result: inactive

---

Molecular target: Desmoglein-3 (Homo sapiens) (UniProt P32926)
Experiment: blockers of anti-DSG3 scFv binding – biochemical, bead-based, flow cytometry, scFv-GFP, primary screen (AID 588358);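 note: hits lower antibody fragment binding to DSG3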
Conditions: DSG3-coupled beads, at 10 µM
Hit rate of the full screen: of about 310,000 compounds, about 1,500 (0.48%) were called active.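 How the source made its calls: active means binding more than 3 SD below its plate's average and above zero; inconclusive means below that plate limit but binding exactly zero; inactive means the rest.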 This is one part of a sample in which actives are shown more often than they occur.
I would appreciate it if you answered using one of these outcomes: active, inactive

Example entries begin here.
Molecule: COc1ccc(N2C(=O)CC(Sc3n[nH]c(-c4ccc(C)cc4)n3)C2=O)cc1 (stereo not given)
Experimental target: Desmoglein-3 (Homo sapiens) (UniProt P32926)
Category label: inactive

Molecule: C#CCOc1ccc(/C=C2/C(=O)ON=C2C)cc1OCC
Experimental target: Desmoglein-3 (Homo sapiens) (UniProt P32926)
Category label: inactive

Molecule: CCc1noc(C)c1C(=O)OCC(=O)c1ccc(NC(=O)CC(C)C)cc1
Experimental target: Desmoglein-3 (Homo sapiens) (UniProt P32926)
Category label: inactive

Molecule: Cc1[nH]c2ccccc2c1C(=O)C(=O)NCc1nnnn1-c1cccc(F)c1
Experimental target: Desmoglein-3 (Homo sapiens) (UniProt P32926)
Category label: inactive

Request: Answer briefly: the call reported for Cc1ccc(OCCNC(=O)CCNS(=O)(=O)c2ccc(Br)cc2)cc1 in this assay.
Result: inactive

Request: Answer briefly: the call reported for COc1cc(/C=C2/C(=O)NN(c3cccc(Cl)c3)C2=O)cc(Br)c1O in this assay.
Result: inactive

Request: Answer briefly: the call reported for CCN(CC)C(=O)C(C)N1c2cccc3cccc(c23)S1(=O)=O (stereo not given) in this assay.
Result: inactive

Request: Answer briefly: the call reported for O=C(N/N=C\c1cccnc1)c1cc(-c2ccccc2)nc2c(Cl)cccc12 in this assay.
Result: inactive

Request: Answer briefly: the call reported for C=CCn1nc(C(=O)OCC)cc1-c1sc(NC(=O)c2ccccc2)nc1C in this assay.
Result: inactive

Request: Answer briefly: the call reported for C#CCOc1ccc(/C=C2/C(=O)NN(c3ccccc3)C2=O)cc1OC in this assay.
Result: active

---

Target: Desmoglein-3 (Homo sapiens) (UniProt P32926)
Assay: blockers of anti-DSG3 scFv binding – biochemical, bead-based, flow cytometry, scFv-GFP, primary screen (AID 588358);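 note: hits lower antibody fragment binding to DSG3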
Conditions: DSG3-coupled beads, at 10 µM
Hit rate of the full screen: of about 310,000 compounds, about 1,500 (0.48%) were called active.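 The calls were made as follows: active = binding more than 3 SD below its plate's average and above zero; inconclusive = below that plate limit but binding exactly zero; inactive = the rest.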 The list comes from a sample in which actives are over-represented; it also holds close analogues and randomly drawn compounds.
I would appreciate it if you answered using one of these outcomes: active, inactive

Example entries begin here.
Compound: CNC(=O)C1CN(C(=O)c2cccc(S(=O)(=O)N3CCc4ccccc43)c2)c2ccccc2O1 (stereo not given)
Category label: inactive
--
Compound: COc1ccc(-n2ncc3c(SCC(=O)NNC(C)=O)ncnc32)cc1
Category label: inactive
--
Compound: COCCn1c(SCC(=O)Nc2ccc(F)cc2F)nc2c(c1=O)SCC2
Category label: inactive

Request: Answer briefly: the call reported for CC1(c2cccc(Br)c2)NC(=O)N(CC(=O)NCCC2=CCCCC2)C1=O (stereo not given) in this assay.
Result: inactive

Request: Answer briefly: the call reported for COc1ccc(NC(=O)CSc2ncnc3[nH]ncc23)cc1 in this assay.
Result: inactive
